Provenance of the data: BindingDB's records for doi:10.1021/jm701519h

Target: Cannabinoid receptor 2 (Homo sapiens)
Sequence (P34972 whole entry): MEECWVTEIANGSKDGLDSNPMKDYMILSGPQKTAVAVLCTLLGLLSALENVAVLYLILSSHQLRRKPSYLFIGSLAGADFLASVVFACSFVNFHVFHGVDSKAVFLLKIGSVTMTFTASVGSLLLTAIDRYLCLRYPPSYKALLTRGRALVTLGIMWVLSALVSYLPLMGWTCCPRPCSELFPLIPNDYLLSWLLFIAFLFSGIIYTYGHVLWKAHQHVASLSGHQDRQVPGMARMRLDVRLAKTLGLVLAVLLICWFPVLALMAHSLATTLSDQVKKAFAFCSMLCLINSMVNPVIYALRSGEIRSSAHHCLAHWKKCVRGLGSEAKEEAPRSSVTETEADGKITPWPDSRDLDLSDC
MEASUREMENT NAME: Ki (µM)
The answer is to be given in µM; state only the numeric part.

q: API: value(readout=Ki, system=Cannabinoid receptor 2 (Homo sapiens)) for record O=C1C(CCC(O)c2ccc(F)cc2)C(c2ccc(O)cc2)N1c1ccc(F)cc1 (stereo unspecified)
a: 1.82
